// endpoint IC50 / system EGFR (UniProt P00533)

# count of solved cases: 2
molecule=Cc1nc(N2CCN(Cc3ncc[nH]3)CC2)nc2[nH]c(-c3c(NC[C@@H](O)c4cccc(Cl)c4)cc[nH]c3=O)nc12 result="< 25 µM"
molecule="COc1ccc(C(O)CNc2cc[nH]c(=O)c2-c2nc3cnccc3[nH]2)cc1Br (centres undefined)" result="< 25 µM"

Quick request: IC50 for each listed item, please.
1. O=c1[nH]c2cc3nc(-c4c(NC[C@@H](O)c5cccc(Cl)c5)cc[nH]c4=O)[nH]c3cc2[nH]1
2. Cc1nc(N2CCN(COCc3ccccc3)CC2)nc2[nH]c(-c3c(NC[C@@H](O)c4cccc(Cl)c4)cc[nH]c3=O)nc12

< 25 µM
< 25 µM
